- system.under.test: human CB1 receptor (Homo sapiens, UniProt P21554)
- Construct: expressed in transfected cells; host or cells: HEK293
- Sequence (P21554 whole entry): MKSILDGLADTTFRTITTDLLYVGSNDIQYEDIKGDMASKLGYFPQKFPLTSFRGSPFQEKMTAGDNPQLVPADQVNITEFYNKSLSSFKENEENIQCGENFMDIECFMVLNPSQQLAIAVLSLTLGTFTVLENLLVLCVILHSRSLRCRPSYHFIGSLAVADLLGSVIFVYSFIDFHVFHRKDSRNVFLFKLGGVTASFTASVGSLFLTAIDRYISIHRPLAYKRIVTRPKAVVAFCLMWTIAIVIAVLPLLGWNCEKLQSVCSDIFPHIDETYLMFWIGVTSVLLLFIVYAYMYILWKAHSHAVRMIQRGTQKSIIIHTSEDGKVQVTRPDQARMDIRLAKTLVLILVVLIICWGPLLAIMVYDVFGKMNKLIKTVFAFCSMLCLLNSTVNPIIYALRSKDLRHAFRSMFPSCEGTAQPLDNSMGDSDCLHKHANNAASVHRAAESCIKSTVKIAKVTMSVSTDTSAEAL
- test.protocol: bioSensAll GAPL-Gi2 BRET biosensor assay in HEK293 cells transfected with hCB1; test compound added before EC75-80 of agonist CP55,940 (0.1 nM)
- Assay type: cell-based
- condition.label: vs CP55,940 0.1 nM (EC75-80), read-out: CB1 wt Gi2 IC50
readout: pIC50
One number for each entry, as −log10 of the molar value.

CN(CCO)c1nc(N2CCC3(CC2)NC(=O)NC3=O)c2nc(-c3ccccc3Cl)n(-c3ccc(Cl)cc3)c2n1	8.58
CN(CCO)c1nc(N2CC(C)(C(N)=O)C2)c2nc(-c3ccccc3Cl)n(-c3ccc(Cl)cc3)c2n1	9.25
CNCCOc1nc(N2CCC(C(N)=O)CC2)c2nc(-c3ccccc3Cl)n(-c3ccc(Cl)cc3)c2n1	7.26

Below are 4 compounds. Give each one its pIC50.
1. CN(CCO)c1nc(N2CCN(C(N)=O)CC2)c2nc(-c3ccccc3Cl)n(-c3ccc(Cl)cc3)c2n1
2. CC1(C(N)=O)CCN(c2nc(N3CCC[C@H]3CO)nc3c2nc(-c2ccccc2Cl)n3-c2ccc(Cl)cc2)CC1
3. COC1(C(N)=O)CCN(c2nc(OCC(C)(C)O)nc3c2nc(-c2ccccc2Cl)n3-c2ccc(Cl)cc2)CC1
4. OC[C@@H]1CN(c2nc(N3CCC[C@H]3CO)nc3c2nc(-c2ccccc2Cl)n3-c2ccc(Cl)cc2)CCO1

A:
9.03
9.59
8.73
9.27

----------
Would you mind telling me the reported pIC50 of each entry?
- system.under.test: human CB1 receptor (Homo sapiens, UniProt P21554)
- Construct: expressed in transfected cells; host or cells: HEK293
- test.protocol: bioSensAll GAPL-Gi2 BRET biosensor assay in HEK293 cells transfected with hCB1; test compound added before EC75-80 of agonist CP55,940 (0.1 nM)
- Assay type: cell-based
- condition.label: vs CP55,940 0.1 nM (EC75-80), read-out: CB1 wt Gi2 IC50
One number for each entry, as −log10 of the molar value.

COC(=O)N1CCN(c2nc(N(C)CCO)nc3c2nc(-c2ccccc2Cl)n3-c2ccc(Cl)cc2)CC1 [Compound 173]	9.38

Below are 3 compounds. Give each one its pIC50.
1. CN(C)CCNc1nc(N2CCC(C)(C(N)=O)CC2)c2nc(-c3ccccc3Cl)n(-c3ccc(Cl)cc3)c2n1 [Compound 102]
2. CCOC1(C(N)=O)CCN(c2nc(N3CCC[C@H]3CO)nc3c2nc(-c2ccccc2Cl)n3-c2ccc(Cl)cc2)CC1 [Compound 177]
3. CC(=O)N1CCN(c2nc(OCC(C)(C)O)nc3c2nc(-c2ccccc2Cl)n3-c2ccc(Cl)cc2)CC1 [Compound 222]

A:
7.30
9.36
8.81

Below are 3 compounds. Give each one its pIC50.
1. CN1CCN(c2nc(OCC(C)(C)O)nc3c2nc(-c2ccccc2Cl)n3-c2ccc(Cl)cc2)CC1 [Compound 227]
2. CC1(C(N)=O)CCN(c2nc(N3CC[C@@](C)(O)C3)nc3c2nc(-c2ccccc2Cl)n3-c2ccc(Cl)cc2)CC1 [Compound 223]
3. CN(CCO)c1nc(N(C)C2CCOC2)c2nc(-c3ccccc3Cl)n(-c3ccc(Cl)cc3)c2n1 (centres unmarked) [Compound 197]

A:
1: 8.32; 2: 9.04; 3: 9.79

Below are 7 compounds. Give each one its pIC50.
1. COCCOc1nc(N2CCC(C(F)(F)F)CC2)c2nc(-c3ccccc3Cl)n(-c3ccc(Cl)cc3)c2n1 [Compound 27]
2. CC(=O)NC1(C)CCN(c2nc(OCC(C)(C)O)nc3c2nc(-c2ccccc2Cl)n3-c2ccc(Cl)cc2)CC1 [Compound 226]
3. CC(C)(O)COc1nc(N2CCC(C)(C(=O)O)CC2)c2nc(-c3ccccc3Cl)n(-c3ccc(Cl)cc3)c2n1 [Compound 220]
4. NC(=O)C1CN(c2nc(N3CCC[C@H]3CO)nc3c2nc(-c2ccccc2Cl)n3-c2ccc(Cl)cc2)C1 [Compound 237]
5. CCNC1(C(N)=O)CCN(c2nc(N(C)CCO)nc3c2nc(-c2ccccc2Cl)n3-c2ccc(Cl)cc2)CC1 [Compound 148]
6. CC1(C(N)=O)CCN(c2nc(NCCS(C)(=O)=O)nc3c2nc(-c2ccccc2Cl)n3-c2ccc(Cl)cc2)CC1 [Compound 11]
7. CCNC1(C(N)=O)CCN(c2nc(NCc3ccccc3)nc3c2nc(-c2ccccc2Cl)n3-c2ccc(Cl)cc2)CC1 [Compound 151]

A:
8.82
9.12
8.46
9.21
9.00
8.70
8.35

Attribution: patent US20250333418A1
